src = ChEMBL document CHEMBL4376871

system: SGC-7901; assay: Antiproliferative activity against human SGC7901 cells incubated for 48 hrs and measured after 4 hrs by MTT assay; assay type: functional, cell-based
pIC50: −log10 of the molar value.
Entries and their pIC50
Property Label: pIC50

- CC(C)(O)CCC[C@@](C)(O)[C@H]1CC[C@]2(C)[C@@H]1[C@H](O)C[C@@H]1[C@@]3(C)CC[C@H](OC(=O)C4CCCNC4)C(C)(C)[C@@H]3CC[C@]12C (stereo partly drawn): 4.92
- CC(C)(O)CCC[C@@](C)(O)[C@H]1CC[C@]2(C)[C@@H]1[C@H](O)C[C@@H]1[C@@]3(C)CC[C@H](N)C(C)(C)[C@@H]3CC[C@]12C: 4.27

* * *

system: SGC-7901; assay: Antiproliferative activity against human SGC7901 cells incubated for 48 hrs and measured after 4 hrs by MTT assay; type: functional, cell-based
pIC50: −log10 of the molar value.
Where pIC50 equals or exceeds 5, the correct label is MET; where it does not, the label is NOT MET.

* CC(C)(O)CCC[C@@](C)(O)[C@H]1CC[C@]2(C)[C@@H]1[C@H](O)C[C@@H]1[C@@]3(C)C/C(=C\c4ccc(Br)cc4)C(=O)C(C)(C)[C@@H]3CC[C@]12C | NOT MET
* CC(C)(O)CCC[C@@](C)(O)[C@H]1CC[C@]2(C)[C@@H]1[C@H](O)C[C@@H]1[C@@]3(C)CC[C@H](OC(=O)C4CCNCC4)C(C)(C)[C@@H]3CC[C@]12C | MET
* CC(C)(O)CCC[C@@](C)(O)[C@H]1CC[C@]2(C)[C@@H]1[C@H](O)C[C@@H]1[C@@]3(C)CC[C@H](NC(=O)C4CCN(C(=O)OC(C)(C)C)CC4)C(C)(C)[C@@H]3CC[C@]12C | NOT MET
* CC(C)(O)CCC[C@@](C)(O)[C@H]1CC[C@]2(C)[C@@H]1[C@H](O)C[C@@H]1[C@@]3(C)CC[C@H](NC(=O)C4CCCNC4)C(C)(C)[C@@H]3CC[C@]12C (stereo not given in full) | NOT MET
* CC(C)(O)CCC[C@@](C)(O)[C@H]1CC[C@]2(C)[C@@H]1[C@H](O)C[C@@H]1[C@@]3(C)C/C(=C\c4cccc([N+](=O)[O-])c4)C(=O)C(C)(C)[C@@H]3CC[C@]12C | NOT MET

* * *

tested on: MGC-803; test: Antiproliferative activity against human MGC803 cells incubated for 48 hrs and measured after 4 hrs by MTT assay; assay type: functional, cell-based
pIC50: −log10 of the molar value.
Let's look at some compounds and their measured pIC50.
Property Label: pIC50

- CC(C)(O)CCC[C@@](C)(O)[C@H]1CC[C@]2(C)[C@@H]1[C@H](O)C[C@@H]1[C@@]3(C)CC[C@H](OC(=O)C4CCN(C(=O)OC(C)(C)C)CC4)C(C)(C)[C@@H]3CC[C@]12C: 4.65
- CC(C)(O)CCC[C@@](C)(O)[C@H]1CC[C@]2(C)[C@@H]1[C@H](O)C[C@@H]1[C@@]3(C)CC[C@H](N)C(C)(C)[C@@H]3CC[C@]12C: 4.86

* * *

assay: Cytotoxicity against human IOSE-144 cells incubated for 48 hrs and measured after 4 hrs by MTT assay; assay type: cell-based
Each entry below lists one item and its recorded IC50 value.
Property Label: IC50

• CC(C)(O)CCC[C@@](C)(O)[C@H]1CC[C@]2(C)[C@@H]1[C@H](O)C[C@@H]1[C@@]3(C)C/C(=C\c4ccc(F)cc4F)C(=O)C(C)(C)[C@@H]3CC[C@]12C = > 100 µM
• CC(C)(O)CCC[C@@](C)(O)[C@H]1CC[C@]2(C)[C@@H]1[C@H](O)C[C@@H]1[C@@]3(C)C/C(=C\c4ccc([N+](=O)[O-])cc4)C(=O)C(C)(C)[C@@H]3CC[C@]12C = > 100 µM
• CC(C)(O)CCC[C@@](C)(O)[C@H]1CC[C@]2(C)[C@@H]1[C@H](O)C[C@@H]1[C@@]3(C)CC[C@H](OC(=O)C4CCCN(C(=O)OC(C)(C)C)C4)C(C)(C)[C@@H]3CC[C@]12C (stereo partly drawn) = > 100 µM

* * *

Below, each of the molecules is paired with its reported IC50 value.
tested on: MGC-803; assay: Antiproliferative activity against human MGC803 cells incubated for 48 hrs and measured after 4 hrs by MTT assay; assay type: functional, cell-based
Property Label: IC50 (µM)

• CC(C)(O)CCC[C@@](C)(O)[C@H]1CC[C@]2(C)[C@@H]1[C@H](O)C[C@@H]1[C@@]3(C)C/C(=C\c4ccc([N+](=O)[O-])cc4)[C@H](O)C(C)(C)[C@@H]3CC[C@]12C = 23.2
• CC(C)(O)CCC[C@@](C)(O)[C@H]1CC[C@]2(C)[C@@H]1[C@H](O)C[C@@H]1[C@@]3(C)CC[C@H](NC(=O)C4CCNCC4)C(C)(C)[C@@H]3CC[C@]12C = 25.5
• CC(C)(O)CCC[C@@](C)(O)[C@H]1CC[C@]2(C)[C@@H]1[C@H](O)C[C@@H]1[C@@]3(C)C/C(=C\c4cccc(Br)c4)[C@H](O)C(C)(C)[C@@H]3CC[C@]12C = 18.8
• CC(C)(O)CCC[C@@](C)(O)[C@H]1CC[C@]2(C)[C@@H]1[C@H](O)C[C@@H]1[C@@]3(C)CC[C@H](NC(=O)C4CCCN(C(=O)OC(C)(C)C)C4)C(C)(C)[C@@H]3CC[C@]12C (stereo not given in full) = 16.8
• CC(C)(O)CCC[C@@](C)(O)[C@H]1CC[C@]2(C)[C@@H]1[C@H](O)C[C@@H]1[C@@]3(C)CC[C@H](OC(=O)C4CCCN(C(=O)OC(C)(C)C)C4)C(C)(C)[C@@H]3CC[C@]12C (stereo not given in full) = 22.2
• CC(C)(O)CCC[C@@](C)(O)[C@H]1CC[C@]2(C)[C@@H]1[C@H](O)C[C@@H]1[C@@]3(C)C/C(=C\c4ccc(Br)cc4)C(=O)C(C)(C)[C@@H]3CC[C@]12C = 13.8
• CC(C)(O)CCC[C@@](C)(O)[C@H]1CC[C@]2(C)[C@@H]1[C@H](O)C[C@@H]1[C@@]3(C)CC[C@H](O)C(C)(C)[C@@H]3CC[C@]12C = 69.8
• CC(C)(O)CCC[C@@](C)(O)[C@H]1CC[C@]2(C)[C@@H]1[C@H](O)C[C@@H]1[C@@]3(C)C/C(=C\c4ccc(Br)cc4)[C@H](O)C(C)(C)[C@@H]3CC[C@]12C = 26.1
• CC(C)(O)CCC[C@@](C)(O)[C@H]1CC[C@]2(C)[C@@H]1[C@H](O)C[C@@H]1[C@@]3(C)C/C(=C\c4ccc(F)cc4F)C(=O)C(C)(C)[C@@H]3CC[C@]12C = 9.32
• CC(C)(O)CCC[C@@](C)(O)[C@H]1CC[C@]2(C)[C@@H]1[C@H](O)C[C@@H]1[C@@]3(C)C/C(=C\c4ccc(C(F)(F)F)cc4)C(=O)C(C)(C)[C@@H]3CC[C@]12C = 26.2

* * *

# pIC50 per record follows
system: MGC-803; assay: Antiproliferative activity against human MGC803 cells incubated for 48 hrs and measured after 4 hrs by MTT assay; type: functional, cell-based
pIC50: −log10 of the molar value.
Property Label: pIC50

- CC(C)(O)CCC[C@@](C)(O)[C@H]1CC[C@]2(C)[C@@H]1[C@H](O)C[C@@H]1[C@@]3(C)CC[C@H](NC(=O)C4CCN(C(=O)OC(C)(C)C)CC4)C(C)(C)[C@@H]3CC[C@]12C: 4.94
- CC(C)(O)CCC[C@@](C)(O)[C@H]1CC[C@]2(C)[C@@H]1[C@H](O)C[C@@H]1[C@@]3(C)C/C(=C\c4cccc(F)c4)[C@H](O)C(C)(C)[C@@H]3CC[C@]12C: 4.25
- CC(C)(O)CCC[C@@](C)(O)[C@H]1CC[C@]2(C)[C@@H]1[C@H](O)C[C@@H]1[C@@]3(C)C/C(=C\c4ccc(F)cc4F)[C@H](O)C(C)(C)[C@@H]3CC[C@]12C: 4.90
- CC(C)(O)CCC[C@@](C)(O)[C@H]1CC[C@]2(C)[C@@H]1[C@H](O)C[C@@H]1[C@@]3(C)C/C(=C\c4cccc(Br)c4)C(=O)C(C)(C)[C@@H]3CC[C@]12C: 4.87
- CC(C)(O)CCC[C@@](C)(O)[C@H]1CC[C@]2(C)[C@@H]1[C@H](O)C[C@@H]1[C@@]3(C)C/C(=C\c4ccc([N+](=O)[O-])cc4)C(=O)C(C)(C)[C@@H]3CC[C@]12C: 4.65
- CC(C)(O)CCC[C@@](C)(O)[C@H]1CC[C@]2(C)[C@@H]1[C@H](O)C[C@@H]1[C@@]3(C)C/C(=C\c4cccc([N+](=O)[O-])c4)C(=O)C(C)(C)[C@@H]3CC[C@]12C: 4.95
- CC(C)(O)CCC[C@@](C)(O)[C@H]1CC[C@]2(C)[C@@H]1[C@H](O)C[C@@H]1[C@@]3(C)CC[C@H](OC(=O)C4CCNCC4)C(C)(C)[C@@H]3CC[C@]12C: 5.19
- CC(C)(O)CCC[C@@](C)(O)[C@H]1CC[C@]2(C)[C@@H]1[C@H](O)C[C@@H]1[C@@]3(C)C/C(=C\c4cccc(F)c4)C(=O)C(C)(C)[C@@H]3CC[C@]12C: 4.88
- CC(C)(O)CCC[C@@](C)(O)[C@H]1CC[C@]2(C)[C@@H]1[C@H](O)C[C@@H]1[C@@]3(C)CC[C@H](NC(=O)C4CCCNC4)C(C)(C)[C@@H]3CC[C@]12C (stereo partly specified): 4.69
- CC(C)(O)CCC[C@@](C)(O)[C@H]1CC[C@]2(C)[C@@H]1[C@H](O)C[C@@H]1[C@@]3(C)CC[C@H](OC(=O)C4CCCNC4)C(C)(C)[C@@H]3CC[C@]12C (stereo partly specified): 4.90
